Data origin, for the record: patent US20210356479A1

Biological target: T1, human Kell glycoprotein, K form (KEL1) (human, UniProt P23276 1-732)
T1 construct: whole, on cells; On human K/K or K+k+ RBCs and on RBCs of K transgenic mice; also called K antigen; K variant
T1 sequence (looked up): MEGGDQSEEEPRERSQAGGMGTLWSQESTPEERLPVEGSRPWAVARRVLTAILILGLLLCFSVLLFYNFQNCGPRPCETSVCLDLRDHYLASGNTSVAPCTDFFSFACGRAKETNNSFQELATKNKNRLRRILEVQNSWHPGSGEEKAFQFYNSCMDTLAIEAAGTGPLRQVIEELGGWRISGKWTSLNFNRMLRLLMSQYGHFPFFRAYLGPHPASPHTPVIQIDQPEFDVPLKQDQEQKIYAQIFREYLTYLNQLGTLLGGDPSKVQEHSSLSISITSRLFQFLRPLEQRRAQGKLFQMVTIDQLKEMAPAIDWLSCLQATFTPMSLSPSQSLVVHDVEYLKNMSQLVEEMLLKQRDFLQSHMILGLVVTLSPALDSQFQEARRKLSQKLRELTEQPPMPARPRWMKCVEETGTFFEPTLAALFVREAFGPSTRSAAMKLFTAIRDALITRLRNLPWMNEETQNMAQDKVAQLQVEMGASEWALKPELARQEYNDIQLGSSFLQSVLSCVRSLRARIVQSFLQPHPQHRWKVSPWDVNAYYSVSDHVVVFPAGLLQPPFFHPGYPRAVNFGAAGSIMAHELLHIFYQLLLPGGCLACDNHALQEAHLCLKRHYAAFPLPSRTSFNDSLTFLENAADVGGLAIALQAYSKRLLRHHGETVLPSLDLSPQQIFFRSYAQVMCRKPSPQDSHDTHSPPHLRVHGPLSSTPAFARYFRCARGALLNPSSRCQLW
Experiment: flow cytometry on human K+k+ RBCs, detected with polyclonal anti-IgG
endpoint name: binding result

PUMA 1 human IgG2-06 isoallotype (antibody, Isoallotype named in CLM-00007; not shown: human IgG2 heavy chain constant region, isoallotype IGHG2*06; human kappa light chain constant region (vector pFUSE2-CLIg-hk)) heavy: EVQLQQSGPELVKPGASVKMSCKASGYTFTDYYMKWVKQSHGKSLEWIGDLNPNNGDTFYNQKFKGKATLTVDKSSSTAYIQLNSLTSEDSAVYYCAREAGSSFGSSCNYWGQGTTLTVS light: SVVMTQTPKFLLVSAGDRVTITCKASQTVSKDVAWYQQQPGQSPKLLIYYASNRYTGVPDRFTGSGYGTDFTFTISTVQAEDLAVYFCQQDYSSPYTFGGGTKLEIK ... binds
PUMA 1 human IgG3-06 isoallotype (antibody, Isoallotype named in CLM-00007; also called PUMA1-IgG3-6; not shown: human IgG3 heavy chain constant region, isoallotype IGHG3*06; human kappa light chain constant region (vector pFUSE2-CLIg-hk)) heavy: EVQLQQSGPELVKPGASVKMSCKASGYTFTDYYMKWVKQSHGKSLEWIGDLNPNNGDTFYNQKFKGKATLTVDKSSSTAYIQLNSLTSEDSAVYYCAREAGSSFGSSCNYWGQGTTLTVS light: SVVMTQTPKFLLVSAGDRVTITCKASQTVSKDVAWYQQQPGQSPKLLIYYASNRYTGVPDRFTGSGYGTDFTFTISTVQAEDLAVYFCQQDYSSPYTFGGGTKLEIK ... binds
PUMA 1 human IgG3-12 isoallotype (antibody, Isoallotype named in CLM-00007; not shown: human IgG3 heavy chain constant region, isoallotype IGHG3*12; human kappa light chain constant region (vector pFUSE2-CLIg-hk)) heavy: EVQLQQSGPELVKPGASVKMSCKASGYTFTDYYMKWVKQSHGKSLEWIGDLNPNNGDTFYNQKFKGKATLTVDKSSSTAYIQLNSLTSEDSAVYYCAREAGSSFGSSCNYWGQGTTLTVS light: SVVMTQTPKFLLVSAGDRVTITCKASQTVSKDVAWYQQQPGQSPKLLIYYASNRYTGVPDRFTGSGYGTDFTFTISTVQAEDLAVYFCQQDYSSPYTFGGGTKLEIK ... binds
